Source: PubChem BioAssay

Reported z-score values are given for each entry in this list.
# PROTOCOL SUMMARY: E. coli growth modulation, two-sided OD650, primary screen, E. coli filamentation project, strain DRC41, 24 h (AID 1093);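 further: MC1000 strain lacking acrAB efflux and sulA so SOS filamentation is blocked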
# CONDITION NOTES: OD650, 24 h, higher = more signal, called active from +8 up or from −8 down
Active and inactive are the calls of the source.

MOLECULE	z-score
COCCOC(=O)N1C(=O)[C@@]2(c3cc(C#CCCO)ccc31)[C@H](C(=O)N1CCN(c3ncccn3)CC1)[C@H]1C(=O)O[C@H](c3ccccc3)[C@H](c3ccccc3)N1[C@@H]2c1ccc(O)cc1	1.49 (inactive)
C=CCC(OC(C)=O)[C@@H]1[C@@H](N(Cc2cc3ccccc3o2)C(=O)Cc2ccc(OC)cc2)c2cc(OCCCO)ccc2N1C(=O)Cc1ccc(OC)cc1 (some centres not stated)	-0.847 (inactive)
CC(C)C[C@@H]1NC(=O)[C@@H]2C[C@H](C(=O)O)[C@H](c3ccc(O)cc3)N2C1=O	2.31 (inactive)
C=CCNC(=O)[C@H]1[C@@H]2C(=O)O[C@@H](c3ccccc3)[C@@H](c3ccccc3)N2[C@@H](c2ccccc2OCCO)[C@]12C(=O)N(C(=O)OCCOC)c1ccccc12	-0.513 (inactive)
CCCCN1CC=CC23O[C@@H]4C=CCOC(=O)[C@@H]4[C@H]2C(=O)N(CCO)[C@@H]3C1=O (some centres not stated)	-0.454 (inactive)

# return recorded z-score for entry "Cc1ccc(F)cc1S(=O)(=O)N[C@@H]1CCN(Cc2ccc3[nH]ccc3c2)C1"
-1.76 (inactive)

# return recorded z-score for entry "CCC[C@@H]1[C@@H](Sc2ccccc2)[C@@H](C(=O)O)[C@H](c2ccc(C)cc2)N1S(=O)(=O)c1ccc(C)cc1"
-0.131 (inactive)

====

Reported composite z-score values are given for each entry in this list.
# TARGET ENTITY: Dihydroorotate dehydrogenase (quinone), mitochondrial (Plasmodium falciparum (isolate 3D7)) (UniProt Q08210)
# Sequence (Q08210 whole entry, looked up): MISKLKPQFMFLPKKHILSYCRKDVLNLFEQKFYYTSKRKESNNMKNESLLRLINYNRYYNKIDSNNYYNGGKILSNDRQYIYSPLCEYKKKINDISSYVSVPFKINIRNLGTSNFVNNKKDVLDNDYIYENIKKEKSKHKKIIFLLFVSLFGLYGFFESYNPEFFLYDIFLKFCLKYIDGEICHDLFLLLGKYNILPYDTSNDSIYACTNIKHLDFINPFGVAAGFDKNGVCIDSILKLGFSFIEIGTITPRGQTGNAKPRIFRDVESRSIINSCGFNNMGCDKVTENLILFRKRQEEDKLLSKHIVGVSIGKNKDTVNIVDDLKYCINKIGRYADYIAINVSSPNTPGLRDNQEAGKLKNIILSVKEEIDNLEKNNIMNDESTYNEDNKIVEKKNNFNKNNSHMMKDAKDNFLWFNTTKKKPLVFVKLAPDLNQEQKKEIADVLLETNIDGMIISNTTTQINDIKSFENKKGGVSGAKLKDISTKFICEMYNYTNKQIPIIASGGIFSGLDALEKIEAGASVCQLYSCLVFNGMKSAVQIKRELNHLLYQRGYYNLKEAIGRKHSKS
# PROTOCOL SUMMARY: PfDHODH enzyme inhibitors, primary screen, biochemical, C-terminal His tag, absorbance 600 nm (AID 1175);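 further: recombinant parasite enzyme with a five histidine tag at its C terminus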
# CONDITION NOTES: DCIP absorbance 600 nm, higher = more signal, called active from +8 up or from −8 down
Could you respond with only the numeric value?

In the examples that follow, each entry is paired with its recorded composite z-score.
SMILES ENTRY	composite z-score
C[N+](C)(C)CCCC[C@@H]1NC(=O)[C@H]2C[C@@H](C(=O)NCCCCCNC(=O)CS)[C@@H](c3ccc(O)cc3)N2C1=O	-1.3
CN(C)CCCNC(=O)[C@@]1(Cc2ccccc2I)c2ccccc2C(=O)N(Cc2ccccc2)[C@H]1c1ccc(CO)cc1	-0.19
CCOC(=O)C[C@H]1[C@H](OC(=O)c2ccc(-c3ccccc3)cc2)[C@@H](NC(=O)CC(C)C)c2cc(OCCCO)ccc2N1C(=O)Cc1ccc(OC)cc1	0.423

Then there is this molecule:
# return recorded composite z-score for entry "CC(C)[Si](C#CCCCC#N)(O[C@H](c1ccccc1)c1cn([C@H](C)c2ccccc2)nn1)C(C)C"
0.31

====

# Test system: XIP peptide (Xip251-270) binding
# PROTOCOL SUMMARY: small-molecule binders of XIP peptide, primary screen, biochemical, small-molecule microarray, fluorescence 635/667 nm, 0.1 µg/mL protein (AID 1182)
# CONDITION NOTES: fluorescent protein binding, 635 nm, higher = more signal, called active from +8 up or from −8 down
We use 0.8 as the dividing line for composite z-score: on or above the line is label 1, below is label 0.

As a guide, the following entries are already answered.
COMPOUND	CAT
C=CCC(OC(C)=O)[C@@H]1[C@@H](N(Cc2cc3ccccc3o2)C(=O)Cc2ccc(OC)cc2)c2cc(OCCCO)ccc2N1C(=O)Cc1ccc2ccccc2c1 (some centres not stated)	label 0
CC(C)[C@@H](C(=O)O)n1cc(-c2ccccc2)nn1	label 0

Please look at the following compound next.
Quick check: does "[N-]=[N+]=Nc1ccccc1[C@@H]1OC(c2ccc(OCCCO)cc2)=N[C@]1(Cc1ccccc1)C(N)=O" have composite z-score greater than or equal to 0.8?
label 0
